Source: the Human Domainome abundance scans (Beltran et al. 2025)

List of abundance fitness values.
B1: Myocardin-related transcription factor A, residues 341 to 383; numbered along this chain, Q969V6 (parent)
chain: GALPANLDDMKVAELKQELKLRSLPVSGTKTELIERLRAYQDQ

- Variants of: B1
- Protocol Notes: abundance fitness (aPCA) (normalised: wild type 0, dead -1); higher = more abundant; growth selection in yeast, the domain comes from the species named
- Assay Setup: Homo sapiens

[
  {
    "Mutation Spec": "K30N",
    "abundance fitness": -0.343
  },
  {
    "Mutation Spec": "G28D",
    "abundance fitness": -0.758
  },
  {
    "Mutation Spec": "Q41K",
    "abundance fitness": 0.202
  },
  {
    "Mutation Spec": "R36P",
    "abundance fitness": -0.066
  },
  {
    "Mutation Spec": "K30Q",
    "abundance fitness": -0.092
  },
  {
    "Mutation Spec": "D42I",
    "abundance fitness": -0.538
  },
  {
    "Mutation Spec": "P25L",
    "abundance fitness": -0.542
  },
  {
    "Mutation Spec": "Q41P",
    "abundance fitness": 0.066
  },
  {
    "Mutation Spec": "Q43S",
    "abundance fitness": -0.029
  },
  {
    "Mutation Spec": "S23K",
    "abundance fitness": 0.142
  },
  {
    "Mutation Spec": "R22P",
    "abundance fitness": -0.561
  },
  {
    "Mutation Spec": "T29S",
    "abundance fitness": -0.084
  },
  {
    "Mutation Spec": "L24Y",
    "abundance fitness": -1.02
  },
  {
    "Mutation Spec": "I34C",
    "abundance fitness": -0.139
  },
  {
    "Mutation Spec": "S27T",
    "abundance fitness": -0.196
  },
  {
    "Mutation Spec": "Y40P",
    "abundance fitness": 0.192
  },
  {
    "Mutation Spec": "G28M",
    "abundance fitness": -0.957
  },
  {
    "Mutation Spec": "D42W",
    "abundance fitness": -0.31
  },
  {
    "Mutation Spec": "L33G",
    "abundance fitness": -0.224
  },
  {
    "Mutation Spec": "L37V",
    "abundance fitness": -0.3
  },
  {
    "Mutation Spec": "Y40M",
    "abundance fitness": 0.02
  },
  {
    "Mutation Spec": "S23Q",
    "abundance fitness": -0.101
  },
  {
    "Mutation Spec": "V26P",
    "abundance fitness": 0.191
  },
  {
    "Mutation Spec": "A39W",
    "abundance fitness": 0.074
  },
  {
    "Mutation Spec": "T29E",
    "abundance fitness": 0.009
  },
  {
    "Mutation Spec": "K30D",
    "abundance fitness": -0.478
  },
  {
    "Mutation Spec": "I34V",
    "abundance fitness": -0.21
  },
  {
    "Mutation Spec": "T31Y",
    "abundance fitness": -0.193
  },
  {
    "Mutation Spec": "T29H",
    "abundance fitness": -0.142
  },
  {
    "Mutation Spec": "L37Q",
    "abundance fitness": -0.631
  },
  {
    "Mutation Spec": "R36V",
    "abundance fitness": -0.339
  },
  {
    "Mutation Spec": "G28C",
    "abundance fitness": -0.608
  },
  {
    "Mutation Spec": "Q41V",
    "abundance fitness": 0.055
  },
  {
    "Mutation Spec": "R36M",
    "abundance fitness": -0.395
  },
  {
    "Mutation Spec": "R38M",
    "abundance fitness": -0.052
  },
  {
    "Mutation Spec": "G28S",
    "abundance fitness": -0.85
  },
  {
    "Mutation Spec": "T29Q",
    "abundance fitness": 0.157
  },
  {
    "Mutation Spec": "T31R",
    "abundance fitness": 0.012
  },
  {
    "Mutation Spec": "T31A",
    "abundance fitness": 0.098
  },
  {
    "Mutation Spec": "S23G",
    "abundance fitness": 0.291
  },
  {
    "Mutation Spec": "A39K",
    "abundance fitness": 0.284
  },
  {
    "Mutation Spec": "R36C",
    "abundance fitness": -0.128
  },
  {
    "Mutation Spec": "E32I",
    "abundance fitness": -0.149
  },
  {
    "Mutation Spec": "E32K",
    "abundance fitness": -0.198
  },
  {
    "Mutation Spec": "Q43H",
    "abundance fitness": -0.01
  },
  {
    "Mutation Spec": "E32G",
    "abundance fitness": -0.606
  }
]
